assay name: physchem
Format: physicochemical
conditions: pH 6.8, aqueous buffer, thermodynamic from solid; JP-2 solution, 1 hour at 37° C.; read-out: powder solubility, JP-2 solution
Method: Test Example 10: Powder Solubility Test Appropriate amounts of the compound of the present invention was put into vials and 200 μL of JP-1st Fluid (water was added to 2.0 g of sodium chloride in 7.0 mL of hydrochloride acid to reach 1000 mL), JP-2nd Fluid (water was added to 500 mL of phosphate buffer solution with a pH of 6.8) and 20 mmol/L sodium taurocholate (TCA)/JP-2nd Fluid (JP-2nd Fluid was added to 1.08 g of TCA in JP-2nd Fluid to reach 100 mL) was added to each vial. […]
quantity kind: solubility (µg/mL)
Record the value in µg/mL, omitting the unit from your answer.

Record request: solubility value, item O=C1c2c(O)c(=O)ccn2N([C@@H]2c3ccccc3SCc3c2ccc(F)c3F)[C@@H]2COCCN12
4.4
